Here the recorded % Inhibition MtDNA is given for each entry.
Test system: MtDNA, HepG2 Hepatoma cells
Assay: Mitochondrial toxicity in HepG2 cells: mitochondrial DNA content
Format: cell-based
Details: 10 μM; HepG2 Hepatoma cells, 14 day assay
From the text: A real-time PCR assay to accurately quantify mitochondrial DNA content has been developed (see Stuyver L J, Lostia S, Adams M, Mathew J S, Pai B S, Grier J, Tharnish P M, Choi Y, Chong Y, Choo H, Chu C K, Otto M J, Schinazi R F. Antiviral activities and cellular toxicities of modified 2′,3′-dideoxy-2′,3′-didehydrocytidine analogs. Antimicrob. Agents Chemother. 2002; 46: 3854-60). […]
Respond with the bare value in %.

// worked examples, % Inhibition MtDNA included
* CCOC(=O)CCc1ccccc1OP(=O)(N[C@H](C)C(=O)OCC)OC[C@H]1O[C@@H](n2cnc3c(N)nc(N)nc32)C(C)(O)C1O (stereo partly shown) [drawing 49] | 34
* CCOC(=O)[C@H](C)NP(=O)(OC[C@H]1O[C@@H](n2cnc3c(N)nc(N)nc32)C(C)(O)C1O)Oc1ccccc1 (stereo partly shown) [drawing 51] | 5.4

Provide % Inhibition MtDNA value for the following compound: Nc1ccn([C@H]2CC[C@@H](CO)O2)c(=O)n1 [ddC, reference compound]
100
